Kindly supply the reported Blood values for the records listed here.
Test system: PC-3 PIP/flu tumor-bearing mice
ASSAY SUMMARY: Biodistribution study in PC-3 PIP/flu tumor-bearing mice
Type: in vivo, athymic nude Balb/c mice
CONDITION SUMMARY: 4 h p.i., PC-3 PIP/flu tumor-bearing mice
Answers are plain numbers, in % IA/g.

Hi there! I need Blood for each item below, if you can.
1. CC(C)Cc1ccc(C(C)C(=O)NCC[C@H](NC(=O)CN2CCN(CC(=O)O)CCN(CC(=O)O)CCN(CC(=O)O)CC2)C(=O)NCC2CCC(C(=O)N[C@@H](Cc3ccc4ccccc4c3)C(=O)NCCCC[C@H](NC(=O)N[C@@H](CCC(=O)O)C(=O)O)C(=O)O)CC2)cc1 (stereo partly drawn) [^177Lu-Ibu-sPSMA, metal not drawn]
2. CC(C)Cc1ccc(C(C)C(=O)NC(CC(=O)NCCCCC(NC(=O)CN2CCN(CC(=O)O)CCN(CC(=O)O)CCN(CC(=O)O)CC2)C(=O)NCC2CCC(C(=O)NC(Cc3ccc4ccccc4c3)C(=O)NCCCCC(NC(=O)NC(CCC(=O)O)C(=O)O)C(=O)O)CC2)C(=O)O)cc1 (stereo not drawn) [^177Lu-Ibu-Dβ-PSMA, metal not drawn]
3. CC(C)Cc1ccc(C(C)C(=O)NC(CCN)C(=O)NCCCCC(NC(=O)CN2CCN(CC(=O)O)CCN(CC(=O)O)CCN(CC(=O)O)CC2)C(=O)NCC2CCC(C(=O)NC(Cc3ccc4ccccc4c3)C(=O)NCCCCC(NC(=O)NC(CCC(=O)O)C(=O)O)C(=O)O)CC2)cc1 (stereo not drawn) [^177Lu-Ibu-DAB-PSMA, metal not drawn]

[reply]
[7.2, 13.2, 3.66]

* * *

Tested on: PC-3 PIP/flu tumor-bearing mice
ASSAY SUMMARY: Biodistribution study in PC-3 PIP/flu tumor-bearing mice
Assay type: in vivo, athymic nude Balb/c mice
CONDITION SUMMARY: 4 h p.i., PC-3 PIP/flu tumor-bearing mice
Hi there, I'd appreciate the recorded Spleen for every entry that follows.
Numbers only, in % IA/g.

A selection of reference data follows.
INSERT INTO assay_data (molecule, units_of_measure, quantitative_result) VALUES
  ('CC(C)Cc1ccc(C(C)C(=O)NC(CC(=O)NCCCCC(NC(=O)CN2CCN(CC(=O)O)CCN(CC(=O)O)CCN(CC(=O)O)CC2)C(=O)NCC2CCC(C(=O)NC(Cc3ccc4ccccc4c3)C(=O)NCCCCC(NC(=O)NC(CCC(=O)O)C(=O)O)C(=O)O)CC2)C(=O)O)cc1 (stereo not drawn) [^177Lu-Ibu-Dβ-PSMA, metal not drawn]', '% IA/g', 2.60),
  ('CC(C)Cc1ccc(C(C)C(=O)NC(CC(N)=O)C(=O)NCCCCC(NC(=O)CN2CCN(CC(=O)O)CCN(CC(=O)O)CCN(CC(=O)O)CC2)C(=O)NCC2CCC(C(=O)NC(Cc3ccc4ccccc4c3)C(=O)NCCCCC(NC(=O)NC(CCC(=O)O)C(=O)O)C(=O)O)CC2)cc1 (stereo not drawn) [^177Lu-Ibu-N-PSMA, metal not drawn]', '% IA/g', 1.40);

Lab note: measured Spleen of CC(C)Cc1ccc(C(C)C(=O)NC(CCN)C(=O)NCCCCC(NC(=O)CN2CCN(CC(=O)O)CCN(CC(=O)O)CCN(CC(=O)O)CC2)C(=O)NCC2CCC(C(=O)NC(Cc3ccc4ccccc4c3)C(=O)NCCCCC(NC(=O)NC(CCC(=O)O)C(=O)O)C(=O)O)CC2)cc1 (stereo not drawn) [^177Lu-Ibu-DAB-PSMA, metal not drawn] was 1.14
